tested on: UBE3A-AS; assay: UBE3A-AS steady state RNA (TaqMan qRT-PCR) in GABAergic iPSC-derived neurons; format: cell-based, human; details: Cluster 1 ASOs; 18 DIV to 24 DIV; parallel model, 4 Parameter logistic (Hill)
Oligonucleotides are written 5' to 3', each unit as a sugar letter and its base; * is a phosphorothioate linkage, no mark a phosphodiester; rarer units and linkages stand in square brackets, end groups in braces. Plain capitals give the bases only. l = locked nucleic acid (LNA); [5mC] = 5-methylcytosine; d = 2'-deoxy (DNA)
Observable: IC50

{"columns": ["Substance", "Observable", "Value Measured"],
 "data": [
  ["A^L*G^L*A^L-a*t*g*g*c*a*c*a*t*c*t-5mC^L*T^L*T^L*G^L (lA*lG*lAdA*dT*dG*dG*dC*dA*dC*dA*dT*dC*dTl[5mC]*lT*lT*lG) [ASO-4.4.PO-1.L]", "IC50", "0.322 µM"],
  ["A^L*G^L*A^L*a*t*g*g*c*a*c*a*t*c*t*5mC^L*T^L*T^L*G^L (NNNATGGCACATCTNNNN; LNA gapmer, PS, 5-methylcytosine, chemistry not fully specified) [ASO-4.4.PS.L]", "IC50", "0.0503 µM"]
]}
